assay_system: Env of HIV-1 strain 251-18 (HIV-1)
procedure_details: cell-based or functional assay
This listing pairs binders with measured neutralization IC50.
experimental_readout: neutralization IC50 (µg/mL)

binder="8ANC3430 (antibody, V domains shown) VH: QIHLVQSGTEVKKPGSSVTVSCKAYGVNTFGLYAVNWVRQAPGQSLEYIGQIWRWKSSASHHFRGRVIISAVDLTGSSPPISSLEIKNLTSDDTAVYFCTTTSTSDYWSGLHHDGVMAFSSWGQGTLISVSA VL: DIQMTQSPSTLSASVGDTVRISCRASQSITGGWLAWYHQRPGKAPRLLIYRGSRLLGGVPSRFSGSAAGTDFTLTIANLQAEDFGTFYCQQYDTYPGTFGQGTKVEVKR" units_label=µg/mL lt_gt_eq== number=6.17
binder="γ22κ5 (antibody, V domains shown) VH: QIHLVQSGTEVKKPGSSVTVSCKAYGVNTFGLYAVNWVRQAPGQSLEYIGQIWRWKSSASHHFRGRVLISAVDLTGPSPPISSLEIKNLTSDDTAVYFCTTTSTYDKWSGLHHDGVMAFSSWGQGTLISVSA VL: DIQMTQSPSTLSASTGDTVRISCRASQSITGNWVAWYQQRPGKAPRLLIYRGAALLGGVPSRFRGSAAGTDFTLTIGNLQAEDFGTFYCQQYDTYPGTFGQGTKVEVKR" units_label=µg/mL lt_gt_eq== number=1.7
binder="γ46κ5 (antibody, V domains shown) VH: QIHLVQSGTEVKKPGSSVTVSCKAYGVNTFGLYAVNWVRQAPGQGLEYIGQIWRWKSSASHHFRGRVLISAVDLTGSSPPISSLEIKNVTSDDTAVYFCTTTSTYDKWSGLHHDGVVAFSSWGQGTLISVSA VL: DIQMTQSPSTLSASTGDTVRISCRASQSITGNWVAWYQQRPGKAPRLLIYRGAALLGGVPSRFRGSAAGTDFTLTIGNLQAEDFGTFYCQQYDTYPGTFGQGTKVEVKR" units_label=µg/mL lt_gt_eq== number=0.609
binder="γ46κ18 (antibody, V domains shown) VH: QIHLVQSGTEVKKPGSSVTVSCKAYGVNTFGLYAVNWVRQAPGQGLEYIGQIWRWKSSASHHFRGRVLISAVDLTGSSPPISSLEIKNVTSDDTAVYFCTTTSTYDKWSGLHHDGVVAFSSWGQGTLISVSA VL: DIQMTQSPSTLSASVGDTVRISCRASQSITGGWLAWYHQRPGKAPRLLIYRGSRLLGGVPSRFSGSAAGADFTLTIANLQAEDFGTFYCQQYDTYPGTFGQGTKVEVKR" units_label=µg/mL lt_gt_eq=> number=15
binder="γ8κ11 (antibody, V domains shown) VH: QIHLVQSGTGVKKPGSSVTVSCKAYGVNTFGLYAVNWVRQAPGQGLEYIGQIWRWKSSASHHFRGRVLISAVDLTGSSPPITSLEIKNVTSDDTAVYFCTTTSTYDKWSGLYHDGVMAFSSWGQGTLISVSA VL: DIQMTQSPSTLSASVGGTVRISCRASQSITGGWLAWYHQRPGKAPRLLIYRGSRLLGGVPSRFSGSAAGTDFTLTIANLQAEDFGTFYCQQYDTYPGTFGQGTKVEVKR" units_label=µg/mL lt_gt_eq=> number=15

Values were extracted from patent US20180171001A1.
